I'd be grateful if you could share measured CDC EC50 for these entries.
# TARGET_SYSTEM: human Claudin 18.2 (hCLDN18.2) (human, UniProt P56856-2 1-261)
# MEASUREMENT_PROTOCOL: cell-based or functional assay
Answers are plain numbers, in µg/mL.

Recorded results for 2 binders are shown here.
ch-48H1 (antibody, V domains shown, also called chimeric antibody of clone 48H1) VH: QVQLQQPGAELVKPGTSVKLSCKASGYIFTNYWTHWMKQRPGQGLEWIGMIHPNSGSSNYNEKFKSKATLTVDRSSSTVYMQLRRLTSEDSAVYYCTRIHYGNSMDYWGQGTSVTVSS VL: DIVMTQSPSSLTVTAGEKVTMSCKSSQSLFNSGNQKNYLTWYQQKPGQPPKLLIYWASTWESGVPDRFTGSGSGTDFTLTISSVQAEDLAVYYCQNAYSYPFTFGSGTKLEIK ... 0.17
ch-241F7 (antibody, V domains shown, also called chimeric antibody of clone 241F7) VH: EVQLQQSGPELEKPGASVKISCKASGYSFTAYNMNWVRQRNGKSLEWIGNIDPYYGGTNYNQKFKGKATLTVDKSSSTAYMQLKSLTSEDSAVYFCATVYYGNSLIYWGQGTLVTVSA VL: DIVMTQSPSSLTVTAGEKVTMSCKSSQSLLNSGNQKNYLTWYQQKPGQPPKLLIYWASTRESGVPDRFTGTGSGTDFTLTISSVQAEDLAVYYCQNNYFYPLTFGAGTQLELK ... 0.099

Below: the item to evaluate.
Ask | // query CDC EC50 value for entry ch-76D11 (antibody, V domains shown, also called chimeric antibody of clone 76D11) VH: QVQLQQSGAELMKPGASVKLSCKASGYTFTGYWIEWIKQRPGHGLEWIGEILPGSGSIKYNEKFKDKATFTADTSSNTAYMQLSSLTTEDSAIYYCARKGLRGNSFDYWGQGTTLTVSS VL: DIVMTQSPSSLTVTAGEKVTMSCKSSQSLLNSGNQKNYLTWYQQKPGQPPKRLIYWASTRESGVPDRFTGSGSGTDFTLTISSVQAEDLAVYYCQNDYYYPFTFGSGTKLEIK
Reply | 0.108
